Reported EC50 values follow for various binders
# SYSTEM_TESTED: T1, human CCR8 (human, UniProt P51685 1-355)
# T1 construct: whole, on cells; the cell line is named under assay; also called hCCR8
# TEST_METHOD_NOTES: flow cytometry on 293F-hCCR8 cells
Value expressed in µg/mL; do not type the unit.

Use these answered entries as a reference point.
- BINDER: "559E1B10_hzH3L0_hIgG1 (antibody, V domains shown, Humanized, hIgG1/K) VH: KVQLVQSGAEVKKPGASVKVSCKASGYTFTDYYVNWVRQAPGQGLEWIGVINPHNGDTRYNQKFKGKATLTVDKSTSTAYMELSSLRSEDTAVYYCASWLRRGYYFDSWGQGTTVTVSS VL: EIVLTQSPATLSLSPGERATLSCRASQSISDYLHWYQQKPGQAPRLLIYYVSQSISGIPARFSGSGSGTDFTLTISSLEPEDFAVYYCQNGHSFPLTFGGGTKVEIKR"
  EC50 / µg/mL: 0.13
- BINDER: "27B9-1G3_hzH1L2_hIgG1 (antibody, V domains shown, Humanized, hIgG1/K; hzVH01 + hzVL02) VH: QVQLVQSGAEVKKPGSSVKVSCKASGGTFSGYNMNWVRQAPGQGLEWMGNIDPYYGGTNYNQKFKGRVTITADKSTSTAYMELSSLRSEDTAVYYCARETWFITTGVIKKGFYFDYWGQGTTVTVSS VL: EIVLTQSPATLSLSPGERATLACSASSIISSNYLHWYQQKPGQAPRLLIYRTSSLASGIPARFSGSGSGTDYTLTISSLEPEDFAVYYCQQGSSIPRTFGGGTKVEIKR"
  EC50 / µg/mL: 0.237
- BINDER: "27B9-1G3_hzH1L1_hIgG1 (antibody, V domains shown, Humanized, hIgG1/K; hzVH01 + hzVL01) VH: QVQLVQSGAEVKKPGSSVKVSCKASGGTFSGYNMNWVRQAPGQGLEWMGNIDPYYGGTNYNQKFKGRVTITADKSTSTAYMELSSLRSEDTAVYYCARETWFITTGVIKKGFYFDYWGQGTTVTVSS VL: EIVLTQSPATLSLSPGERATLSCSASSIISSNYLHWYQQKPGQAPRLLIYRTSSLASGIPARFSGSGSGTDFTLTISSLEPEDFAVYYCQQGSSIPRTFGGGTKVEIKR"
  EC50 / µg/mL: 0.188
- BINDER: "27B9-1G3_hzH1L3_hIgG1 (antibody, V domains shown, Humanized, hIgG1/K; hzVH01 + hzVL03) VH: QVQLVQSGAEVKKPGSSVKVSCKASGGTFSGYNMNWVRQAPGQGLEWMGNIDPYYGGTNYNQKFKGRVTITADKSTSTAYMELSSLRSEDTAVYYCARETWFITTGVIKKGFYFDYWGQGTTVTVSS VL: EIVLTQSPATLSLSPGERATLACSASSIISSNYLHWYQQKPGQSPRLLIYRTSSLASGVPARFSGSGSGTSYTLTISSLEPEDFAVYYCQQGSSIPRTFGGGTKVEIKR"
  EC50 / µg/mL: 0.175

Turning now to a further binder:
GET /value?item= 27B9-1G3_hzH3L1_hIgG1 (antibody, V domains shown, Humanized, hIgG1/K; hzVH03 + hzVL01) VH: QVQLVQSGAEVKKPGSSVKVSCKASGGTFSGYNMNWVRQAPGQGLEWMGNIDPYYGGTNYNQKFKGKATITADKSTSTAYMELSSLRSEDTAVYYCARETWFITTGVIKKGFYFDYWGQGTTVTVSS VL: EIVLTQSPATLSLSPGERATLSCSASSIISSNYLHWYQQKPGQAPRLLIYRTSSLASGIPARFSGSGSGTDFTLTISSLEPEDFAVYYCQQGSSIPRTFGGGTKVEIKR &field=EC50 returns 0.175
